- Tgt: T1, recombinant human ErbB3 monomeric protein (cleaved rhErbB3) (human, UniProt P21860 20-643, limits assumed)
- T1 construct: Monomer made by protease cleavage of the Fc fusion; also called Monomeric ErbB3
- Assay Comment: SPR Biacore 37 C; supernatant antibody captured on anti-human Fc, cleaved rhErbB3 injected
Quick reference: log10 koff of the listed items.
Quick note: numbers are log10 of koff, with s⁻¹ as the unit.

Answered cases to consult:
Binder	Property Name	Readout Number
Sh24C05-41 (antibody, human IgG1, kappa, V domains shown, Humanized, human IgG1/kappa) VH: QVQLVESGGGVVQPGRSLRLSCAASGFTFSDYAMSWVRQAPGKGLEWVATISDGGTYTYYPDNVKGRFTISRDNSKNTLYLQMSSLRAEDTAVYYCAREWGDYDGFDYWGQGTLVTVSS VL: DIQLTQSPSFLSASVGDRVTITCRASQEISGYLSWYQQKPGKAPKLLIYAASTLDSGVPSRFSGSGSGTEFTLTISSLQPEDFATYYCLQYDSYPYTFGQGTKLEIKR	log10 koff	-1.92
Sh24C05-25 (antibody, human IgG1, kappa, V domains shown, Humanized, human IgG1/kappa) VH: QVQLVESGGGLVKPGGSLRLSCAASGFTFSDYAMSWIRQAPGKGLEWVSTISDGGTYTYYPDNVKGRFTISRDNAKNSLYLQMNSLRAEDTAVYYCAREWGDYDGFDYWGQGTLVTVSS VL: DIQMTQSPSSLSASVGDRVTITCRASQEISGYLSWFQQKPGKAPKSLIYAASTLDSGVPSRFSGSGSGTDFTLTISSLQPEDFATYYCLQYDSYPYTFGQGTKLEIKR	log10 koff	-3.34
Sh24C05-49 (antibody, human IgG1, kappa, V domains shown, Humanized, human IgG1/kappa) VH: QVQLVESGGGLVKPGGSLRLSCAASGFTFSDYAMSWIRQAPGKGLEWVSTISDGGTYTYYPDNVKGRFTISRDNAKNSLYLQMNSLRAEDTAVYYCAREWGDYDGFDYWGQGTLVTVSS VL: DIQMTQSPSSLSASVGDRVTITCRASQEISGYLSWYQQKPGKAPKLLIYAASTLDSGVPSRFSGSGSGTDFTLTISSLQPEDFATYYCLQYDSYPYTFGQGTKLEIKR	log10 koff	-2.77
Sh24C05-45 (antibody, human IgG1, kappa, V domains shown, Humanized, human IgG1/kappa) VH: EVQLVESGGGLVKPGGSLRLSCAASGFTFSDYAMSWVRQAPGKGLEWVSTISDGGTYTYYPDNVKGRFTISRDNAKNSLYLQMNSLRAEDTAVYYCAREWGDYDGFDYWGQGTLVTVSS VL: DIQMTQSPSSLSASVGDRVTITCRASQEISGYLSWYQQKPGKAPKLLIYAASTLDSGVPSRFSGSGSGTDFTLTISSLQPEDFATYYCLQYDSYPYTFGQGTKLEIKR	log10 koff	-2.22

Then this binder:
What does the data say about its log10 koff? Entry: Sh24C05-28 (antibody, human IgG1, kappa, V domains shown, Humanized, human IgG1/kappa) VH: EVQLLESGGGLVQPGGSLRLSCAASGFTFSDYAMSWVRQAPGKGLEWVSTISDGGTYTYYPDNVKGRFTISRDNSKNTLYLQMNSLRAEDTAVYYCAREWGDYDGFDYWGQGTLVTVSS VL: DIQMTQSPSSLSASVGDRVTITCRASQEISGYLSWYQQKPGKAPKRLIYAASTLDSGVPSRFSGSGSGTEFTLTISSLQPEDFATYYCLQYDSYPYTFGQGTKLEIKR
-3.21
